- assay_system: T1, GPC3 protein (Acrobiosystems, cat #GP3-H52H4) (UniProt P51654 25-559)
- T1 construct: Bought protein coated on the ELISA plate at 100 ng/well; also called Glypican 3; GPC3 antigen
- T1 sequence (P51654 25-559 limits assumed): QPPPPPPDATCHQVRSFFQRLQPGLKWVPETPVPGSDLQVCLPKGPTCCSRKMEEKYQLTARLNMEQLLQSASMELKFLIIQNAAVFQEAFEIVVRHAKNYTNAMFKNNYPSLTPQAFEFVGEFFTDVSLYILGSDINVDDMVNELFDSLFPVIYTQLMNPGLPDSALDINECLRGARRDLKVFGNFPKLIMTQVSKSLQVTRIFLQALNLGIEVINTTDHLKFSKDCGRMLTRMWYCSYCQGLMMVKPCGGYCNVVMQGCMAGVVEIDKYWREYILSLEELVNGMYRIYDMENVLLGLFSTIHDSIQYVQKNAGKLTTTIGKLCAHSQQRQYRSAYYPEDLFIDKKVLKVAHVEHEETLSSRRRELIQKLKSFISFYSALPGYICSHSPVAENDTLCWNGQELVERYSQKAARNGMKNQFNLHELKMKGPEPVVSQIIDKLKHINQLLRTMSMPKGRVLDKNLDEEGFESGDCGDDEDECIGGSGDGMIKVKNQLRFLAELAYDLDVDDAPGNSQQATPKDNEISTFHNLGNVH
- test: ELISA, GPC3 protein coated at 100 ng/well, 100 µl hybridoma culture, anti-mIgG-HRP

{"binder": "1A8 antibody (antibody, V domains shown, Mouse hybridoma monoclonal antibody, detected with anti-mouse IgG) VH: QVQLQQPGSELVRPGASVKLSCKASGYTFTSYWMHWVKQRHGQGLEWIGNIYPGSGSTNYDEKFKSKGTLTVDTSSRTAYMHLSSLTSEDSAVYYCTRGHYDYAMDYWGQGTSVTVSS VL: DIVMTQSPSSLSASLGDTITITCHASQNINVWLSWYQQKPGNIPKLLIYKTSNLHTGVPSRFSGSGSGTGFTLTISSLQPEDIATYYCQQGQSYPWTFGGGTKLEIK", "OD450 measurement, OD450": 2.65}
